- assay name: Selectivity ratio for binding to factor I (IC50) and thrombin (Ki)

{"compound": "Cc1cc(C)cc(CCN(CC(=O)NC(CCCCN)B(O)O)C(=O)CCc2ccccc2)c1 (configuration not stated)", "censoring sign": "=", "Ratio": 607}
{"compound": "Cc1cc(C)cc(CCN(CC(=O)NC(CCC/N=C/N)B(O)O)C(=O)CCc2ccccc2)c1 (configuration not stated)", "censoring sign": "=", "Ratio": 1080}
{"compound": "Cc1cc(C)cc(C(C)(C)CN(CC(=O)NC(CCCN=C(N)N)B(O)O)C(=O)CCc2ccccc2)c1 (configuration not stated)", "censoring sign": "=", "Ratio": 1070}
{"compound": "NCCCCC(NC(=O)CN(CC1(c2ccccc2)CC1)C(=O)CCc1ccccc1)B(O)O (configuration not stated)", "censoring sign": "=", "Ratio": 10000}
{"compound": "N/C=N/CCCC(NC(=O)CN(CC1(c2ccccc2)CCCC1)C(=O)CCc1ccccc1)B(O)O (configuration not stated)", "censoring sign": ">", "Ratio": 16700}
{"compound": "CC(C)(CN(CC(=O)NC(CCCN=C(N)N)B(O)O)C(=O)CCc1ccccc1)c1ccccc1 (configuration not stated)", "censoring sign": "=", "Ratio": 2170}
{"compound": "NCCCCC(NC(=O)CN(CCc1ccccc1)C(=O)CCc1ccccc1)B(O)O (configuration not stated)", "censoring sign": "=", "Ratio": 3570}
